Kindly supply the reported pKi values for the records listed here.
Target: TYK2 (Homo sapiens, UniProt P29597)
Sequence (P29597 873-1187): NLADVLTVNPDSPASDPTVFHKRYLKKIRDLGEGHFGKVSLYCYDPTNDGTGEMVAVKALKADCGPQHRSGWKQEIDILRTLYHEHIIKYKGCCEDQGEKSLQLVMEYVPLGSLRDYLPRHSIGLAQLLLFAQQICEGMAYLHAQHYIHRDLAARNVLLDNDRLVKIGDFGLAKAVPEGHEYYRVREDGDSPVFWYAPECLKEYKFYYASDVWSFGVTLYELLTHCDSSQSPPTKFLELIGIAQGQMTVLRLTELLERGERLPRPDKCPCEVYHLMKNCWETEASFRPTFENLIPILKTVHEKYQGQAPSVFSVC
Worth noting: pKi values are minus log10 of concentrations stated in mol/L.

# value lookup — system TYK2 (Homo sapiens, UniProt P29597), readout pKi, item `N#Cc1ccc(S(=O)(=O)N2CCC[C@@H](n3cnc4cnc5[nH]ccc5c43)C2)cc1`
7.39

# value lookup — system TYK2 (Homo sapiens, UniProt P29597), readout pKi, item `O=C(C1CCC1)N1CCC[C@@H](n2cnc3cnc4[nH]ccc4c32)C1`
7.53

# value lookup — system TYK2 (Homo sapiens, UniProt P29597), readout pKi, item C[C@@H](O)c1nc2cnc3[nH]ccc3c2n1C1CCNCC1(F)F (single isomer, unassigned)
8.14

# value lookup — system TYK2 (Homo sapiens, UniProt P29597), readout pKi, item `Cc1nc2cnc3[nH]ccc3c2n1C1CCC(F)(F)CC1`
7.78

# value lookup — system TYK2 (Homo sapiens, UniProt P29597), readout pKi, item CN(C)C(=O)CNC(=O)Cc1nc2cnc3[nH]ccc3c2n1C1CCCOC1 (racemic)
6.61

# value lookup — system TYK2 (Homo sapiens, UniProt P29597), readout pKi, item `CC(C)COCc1nc2cnc3[nH]ccc3c2n1C1CCN(CCC#N)CC1`
6.22

# value lookup — system TYK2 (Homo sapiens, UniProt P29597), readout pKi, item CS(=O)(=O)NCc1nc2cnc3[nH]ccc3c2n1C1CC2CCC1O2 (stereo not shown) [Example 925]
6.47

# value lookup — system TYK2 (Homo sapiens, UniProt P29597), readout pKi, item `COCC(=O)NCc1nc2cnc3[nH]ccc3c2n1C1CCN(CCC#N)CC1`
7.30

# value lookup — system TYK2 (Homo sapiens, UniProt P29597), readout pKi, item `Cc1cnn(CCc2nc3cnc4[nH]ccc4c3n2C2CCN(CCC#N)CC2)c1`
6.74

# value lookup — system TYK2 (Homo sapiens, UniProt P29597), readout pKi, item `Cc1nc2cnc3[nH]ccc3c2n1[C@@H]1CC[C@@H](NCCC#N)C1`
7.10

# value lookup — system TYK2 (Homo sapiens, UniProt P29597), readout pKi, item `C[C@@H](O)c1nc2cnc3[nH]ccc3c2n1[C@@H]1CCCN(C(=O)CC2CC2)C1`
6.09

# value lookup — system TYK2 (Homo sapiens, UniProt P29597), readout pKi, item CC(O)c1nc2cnc3[nH]ccc3c2n1C1CC2CCC(C1)N2 (stereo not shown)
6.58

# value lookup — system TYK2 (Homo sapiens, UniProt P29597), readout pKi, item `C[C@@H](O)c1nc2cnc3[nH]ccc3c2n1[C@@H]1CCNC1`
6.08

# value lookup — system TYK2 (Homo sapiens, UniProt P29597), readout pKi, item CC(O)c1nc2cnc3[nH]ccc3c2n1C1CC2CCC1O2 (stereo not shown) [Example 848]
6.67

# value lookup — system TYK2 (Homo sapiens, UniProt P29597), readout pKi, item `CC(C)c1nccn1CCc1nc2cnc3[nH]ccc3c2n1C1CCN(CCC#N)CC1`
7.04

# value lookup — system TYK2 (Homo sapiens, UniProt P29597), readout pKi, item `COC(=O)N[C@H]1CC[C@H](n2c(CO)nc3cnc4[nH]ccc4c32)CC1`
7.68

# value lookup — system TYK2 (Homo sapiens, UniProt P29597), readout pKi, item `CS(=O)(=O)NCCc1nc2cnc3[nH]ccc3c2n1[C@@H]1CCCOC1`
6.00

# value lookup — system TYK2 (Homo sapiens, UniProt P29597), readout pKi, item `COCC(=O)NCCc1nc2cnc3[nH]ccc3c2n1C1CCN(CCC#N)CC1`
6.87

# value lookup — system TYK2 (Homo sapiens, UniProt P29597), readout pKi, item `N#CCCN1CCC(n2c(CCn3cncn3)nc3cnc4[nH]ccc4c32)CC1`
6.50

# value lookup — system TYK2 (Homo sapiens, UniProt P29597), readout pKi, item OCc1nc2cnc3[nH]ccc3c2n1C1CC2CCC1O2 (single isomer, unassigned) [Example 852]
7.05

# value lookup — system TYK2 (Homo sapiens, UniProt P29597), readout pKi, item `C[C@H](O)c1nc2cnc3[nH]ccc3c2n1C1CCOCC1`
6.56

# value lookup — system TYK2 (Homo sapiens, UniProt P29597), readout pKi, item CC(O)c1nc2cnc3[nH]ccc3c2n1C1CC2CCC1O2 (stereo not shown) [Example 938]
6.76

# value lookup — system TYK2 (Homo sapiens, UniProt P29597), readout pKi, item `C[C@@H](O)c1nc2cnc3[nH]ccc3c2n1[C@H]1CCN(S(C)(=O)=O)C1`
6.46

# value lookup — system TYK2 (Homo sapiens, UniProt P29597), readout pKi, item CC(C)CNC(=O)Cc1nc2cnc3[nH]ccc3c2n1C1CCCOC1 (racemic)
6.32

# value lookup — system TYK2 (Homo sapiens, UniProt P29597), readout pKi, item COCC(=O)NC1CCCC(n2cnc3cnc4[nH]ccc4c32)C1 (single isomer, unassigned) [Example 482]
6.07

# value lookup — system TYK2 (Homo sapiens, UniProt P29597), readout pKi, item `CC(C)(C)OC(=O)N[C@H]1CC[C@@H](n2cnc3cnc4[nH]ccc4c32)CC1`
6.96

# value lookup — system TYK2 (Homo sapiens, UniProt P29597), readout pKi, item `Cc1cc(CN2CCC(n3c([C@@H](C)O)nc4cnc5[nH]ccc5c43)CC2)n(C)n1`
6.33

# value lookup — system TYK2 (Homo sapiens, UniProt P29597), readout pKi, item `N#CCCN1CCC(n2c(COC3CCCC3)nc3cnc4[nH]ccc4c32)CC1`
6.14

# value lookup — system TYK2 (Homo sapiens, UniProt P29597), readout pKi, item Cc1nc2cnc3[nH]ccc3c2n1C1CCC(NC(=O)N(C)CC(F)(F)F)CC1 (stereo not shown)
6.75

# value lookup — system TYK2 (Homo sapiens, UniProt P29597), readout pKi, item `CC1(n2nnc3cnc4[nH]ccc4c32)CCN(S(C)(=O)=O)CC1`
6.76

# value lookup — system TYK2 (Homo sapiens, UniProt P29597), readout pKi, item O=S1(=O)CCN(C2CCC(n3cnc4cnc5[nH]ccc5c43)CC2)CC1 (stereo not shown)
7.68

# value lookup — system TYK2 (Homo sapiens, UniProt P29597), readout pKi, item CC(C)(C)OC(=O)NC1CCCC(n2cnc3cnc4[nH]ccc4c32)C1 (single isomer, unassigned) [Example 474]
7.33

# value lookup — system TYK2 (Homo sapiens, UniProt P29597), readout pKi, item `N#Cc1nc2cnc3[nH]ccc3c2n1C1CCN(Cc2cccnc2)CC1`
6.69

# value lookup — system TYK2 (Homo sapiens, UniProt P29597), readout pKi, item `N#CCCN1CCC[C@@H](n2cnc3cnc4[nH]ccc4c32)C1`
7.05

---

Biological target: JAK3 (Homo sapiens, UniProt P52333)
Construct: made in house; host or cells: SF9 insect cells (baculovirus)
Sequence (P52333 783-1124): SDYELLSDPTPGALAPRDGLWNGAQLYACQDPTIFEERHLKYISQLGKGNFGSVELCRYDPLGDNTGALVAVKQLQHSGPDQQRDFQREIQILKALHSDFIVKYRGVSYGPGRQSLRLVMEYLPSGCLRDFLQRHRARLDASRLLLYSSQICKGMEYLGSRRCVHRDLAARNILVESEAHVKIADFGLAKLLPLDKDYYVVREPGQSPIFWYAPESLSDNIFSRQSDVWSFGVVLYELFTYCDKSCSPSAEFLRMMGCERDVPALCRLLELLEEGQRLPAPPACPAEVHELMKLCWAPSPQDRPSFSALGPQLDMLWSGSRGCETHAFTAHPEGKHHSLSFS
Assay: JAK3 inhibition (Table 4)
Assay type: biochemical
Settings: read-out: JAK3 Ki
ASSAY_ENDPOINT: pKi
Worth noting: pKi values are minus log10 of concentrations stated in mol/L.

# value lookup — system JAK3 (Homo sapiens, UniProt P52333), readout pKi, item CCN1CCC(n2c([C@@H](C)O)nc3cnc4[nH]ccc4c32)C(F)(F)C1 (single isomer, unassigned) [Example 879]
7.55

# value lookup — system JAK3 (Homo sapiens, UniProt P52333), readout pKi, item N#CCCN1CCC(n2c(CCNC(=O)C3CCC3)nc3cnc4[nH]ccc4c32)CC1 [Example 375]
7.22

# value lookup — system JAK3 (Homo sapiens, UniProt P52333), readout pKi, item N#CCC(=O)N1CCC[C@@H](n2c(CCO)nc3cnc4[nH]ccc4c32)C1 [Example 17]
7.10

# value lookup — system JAK3 (Homo sapiens, UniProt P52333), readout pKi, item COCCN(C)C(=O)NC1CCC(n2c(C)nc3cnc4[nH]ccc4c32)C1 (racemic) [Example 738]
7.09

---

Kindly supply the reported Ki values for the records listed here.
Molecular target: JAK2 (Homo sapiens, UniProt O60674)
Construct: made in house; host or cells: SF9 insect cells (baculovirus)
Sequence (O60674 812-1132): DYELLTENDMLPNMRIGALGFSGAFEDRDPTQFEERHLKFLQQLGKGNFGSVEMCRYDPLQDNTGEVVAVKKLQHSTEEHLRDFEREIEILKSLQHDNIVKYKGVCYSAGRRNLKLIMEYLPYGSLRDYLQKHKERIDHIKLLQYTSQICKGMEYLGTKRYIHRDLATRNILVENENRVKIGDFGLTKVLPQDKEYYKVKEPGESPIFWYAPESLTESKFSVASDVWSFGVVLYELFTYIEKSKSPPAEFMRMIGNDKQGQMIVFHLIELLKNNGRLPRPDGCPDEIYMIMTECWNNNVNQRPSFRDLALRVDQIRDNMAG
Experiment: JAK2 inhibition (Table 4)
Format: biochemical
Settings: read-out: JAK2 Ki
Kindly answer with a numeric value in µM, unit omitted.

Could you share which Ki value was measured for Cc1nc2cnc3[nH]ccc3c2n1[C@H]1CC[C@H](N2CCC(O)C2)CC1 (mixture of isomers) ?
0.126

Could you share which Ki value was measured for `N#C[C@@H]1CCN([C@H]2CC[C@H](n3cnc4cnc5[nH]ccc5c43)CC2)C1` ?
0.00551

Could you share which Ki value was measured for `CC1(n2nnc3cnc4[nH]ccc4c32)CCN(S(C)(=O)=O)CC1` ?
0.0319

Could you share which Ki value was measured for C[C@@H](O)c1nc2cnc3[nH]ccc3c2n1C1CCC(CC#N)CC1 (stereo partly drawn) [Example 743] ?
0.00368

Could you share which Ki value was measured for CS(=O)(=O)NCc1nc2cnc3[nH]ccc3c2n1C1CCNCC1(F)F (racemic) ?
0.035

Could you share which Ki value was measured for `Cn1ccnc1CCc1nc2cnc3[nH]ccc3c2n1C1CCN(CCC#N)CC1` ?
0.0644

Could you share which Ki value was measured for C[C@@H](O)c1nc2cnc3[nH]ccc3c2n1C1CC2CCC1C2 (stereo partly drawn) ?
0.00822

Could you share which Ki value was measured for `N#CCCN1CCC(n2c(COC3CCOCC3)nc3cnc4[nH]ccc4c32)CC1` ?
0.0832

Could you share which Ki value was measured for `N#CCCN1CCC(n2c(C3CC3)nc3cnc4[nH]ccc4c32)CC1` ?
0.00531
